experiment: HoxA9-arrested leukemia cell differentiation promoters – flow cytometry, MLPCN library, primary screen (AID 624256); settings: ER-HoxA9 myeloid progenitors, lysozyme-GFP differentiation, at 10 µM; measured here: differentiation confirmed by MAC1 staining, stronger effect = higher value;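 further: cells exposed to compound for four days before flow analysis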
In all, about 360,000 compounds went through this assay and about 3,700 (1%) were called active. Inconclusive results (about 2%) are left out. Many of the other results were omitted from the sample, so actives are more common in it than they were.
endpoint label: GFP+ MAC1+ double positive (%)
Record the value in %, omitting the unit from your answer.

The examples below pair each entry with its known result.
1. COc1cc(N=Cc2c(O)[nH]c3ccccc23)cc(OC)c1OC    16.7
2. Cc1ccc(COc2ccc(/C=N/NC(=O)CN3CCCCC3)cc2)cc1    0.2

Please examine the following record next.
GFP+ MAC1+ double positive reading for `CN=c1scc(-c2cc(OC)ccc2OC)n1/N=C/c1c(C)[nH]c2ccccc12` : 1.2

====

experiment: HoxA9-arrested leukemia cell differentiation promoters – flow cytometry, MLPCN library, primary screen (AID 624256); settings: ER-HoxA9 myeloid progenitors, lysozyme-GFP differentiation, at 10 µM; measured here: differentiation confirmed by MAC1 staining, stronger effect = higher value;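 further: cells exposed to compound for four days before flow analysis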
Hit rate of the full screen: of about 360,000 compounds, about 3,700 (1%) were called active. Not shown: some 2% with an inconclusive outcome. The sample as a whole holds a higher share of actives than the screen did.
endpoint label: GFP+ MAC1+ double positive (%)
Numeric answer only, unit % assumed.

1) CCCOC(=O)c1[nH]c2c(c1C)C(=O)CC(c1cc(OC)c(OC)c(OC)c1)C2 (stereo not given)    8.6
2) CCC(C(=O)NCc1ccccc1)n1c(Cc2cc(F)cc(F)c2)nc2ccccc21 (stereo not given)    2
3) S=C(NCCCc1cnc[nH]1)NCCCN(Cc1ccc(Cl)c(Cl)c1)c1ccc(Br)cn1    1.1
4) COc1ccc(-c2[nH][nH]c(=O)c2NC(=O)c2ccc([N+](=O)[O-])cc2)cc1    0.8
5) COc1cc(C2CC(=O)c3cnc(NC(C)=O)nc3C2)cc(OC)c1OC (stereo not given)    0.9
6) CNC(=S)N/N=C/c1ccc(OCc2ccccc2)c(Br)c1    0.2
7) CNC(=S)NNC(=O)c1sccc1OCc1ccccc1    2.8
8) CCOC(=O)C1=CC[C@@H](c2ccccc2)N(S(=O)(=O)c2ccc(C)cc2)[C@H]1c1ccc(CC)cc1    0.9
9) Cc1scc(C(=O)NNC(=S)NCc2ccccc2)c1C    0.2

In the following, a different compound is considered.
Lab book: GFP+ MAC1+ double positive of `CCCCNC(=O)C[C@@H]1C[C@@]2(C(=O)OCC)CCC=C2N(Cc2cccc3ccccc23)C1=O` noted as 0.6

====

assay: HoxA9-arrested leukemia cell differentiation promoters – flow cytometry, MLPCN library, primary screen (AID 624256); details: ER-HoxA9 myeloid progenitors, lysozyme-GFP differentiation, at 10 µM; measured here: differentiation confirmed by MAC1 staining, stronger effect = higher value;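 further: cells exposed to compound for four days before flow analysis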
Out of some 360,000 compounds screened, about 3,700 (1%) were called active. Another 2% or so got no clear call; they are omitted. What follows is part of a selection rich in actives, with near analogues and random picks from the rest.
Form field: GFP+ MAC1+ double positive (one value per entry).
Number in %, nothing else.

1. CCOC(=O)[C@]12CCCC=C1N(CCC1=CCCCC1)C(=O)[C@H](CC(=O)N1CCSCC1)C2    4.4

Entry `COc1cccc(NC(=O)[C@H](Cc2c[nH]c3ccccc23)NC(=O)[C@@H]2Cc3ccccc3CN2)c1` , GFP+ MAC1+ double positive reported as 5.1

GFP+ MAC1+ double positive reading for O=C1OCCOC2CCCc3oc(-c4ccccc4)c1c32 (stereo not given) : 0.1

So, `Cc1cccn2c(=O)c(/C=C3\SC(=S)N(CC(C)C)C3=O)c(NCCCOC(C)C)nc12` ? Its GFP+ MAC1+ double positive was 6

So, `COc1ccccc1N1CCN(C(=O)c2cc3c(-c4ccc(Cl)cc4)nn(C)c3s2)CC1` ? Its GFP+ MAC1+ double positive was 3.7

Form field GFP+ MAC1+ double positive, entry `CCOC(=O)N1CCN(C(=O)c2cc3c(-c4ccc(Cl)cc4)nn(C)c3s2)CC1` : 33.3

What the record says about `COc1ccc(N(CCC#N)S(=O)(=O)c2ccc(Cl)cc2)cc1` : GFP+ MAC1+ double positive is 6.2

`Cc1ccc2[nH]c(=O)c(-c3nc4c(C)cccn4c3NCc3ccco3)cc2c1` has a reported GFP+ MAC1+ double positive of 0.8

Data point: `Cn1nc(C(F)(F)F)c2cc(C(=O)N3CCOCC3)sc21` ; GFP+ MAC1+ double positive = 0.1

Measured GFP+ MAC1+ double positive, `CC1(C)OC(=O)C2=C(C[C@@H](C3CC3)O[C@H]2CCc2cccc(Cl)c2)O1` : 0.7

src = PubChem BioAssay AID624256
